This listing pairs compounds with measured growth inhibition.
protocol_details: NCI Yeast Anticancer Drug Screen. Data for the mlh1 rad18 strain (AID 175)
experimental_setup: S. cerevisiae mlh1 rad18 strain growth inhibition; at 50.0 µM; hits give high values
Compounds without any hit were thinned out: in the full panel of roughly 79,000, 15% have a hit.
Number in %, nothing else.

- compound: "CC(COCc1ccccc1)NCc1ccccc1 (configuration not stated)"
  growth inhibition, %: 13.2
- compound: "O=S(=O)(c1ccc(Cl)cc1)c1ccccc1C1=NCCN1"
  growth inhibition, %: -23.8
- compound: "CCCCCCCCCCCCNCC(O)c1cc(-c2ccccc2)nc2c(Cl)cc(Cl)cc12 (configuration not stated)"
  growth inhibition, %: 26.5
- compound: "Cc1cc2c(cc1Cl)SC(NNC(=O)c1ccncc1)=NS2(=O)=O"
  growth inhibition, %: -9.4
- compound: "CCCCc1c2c(nc3c1CCCC3O)CCCC2 (configuration not stated)"
  growth inhibition, %: -23.9

Data request: Can you look up the measured growth inhibition of COC(=O)c1ccc(N(C)CC/C(CNc2nc(N)[nH]c(=O)c2[N+](=O)[O-])=N\NC(N)=O)cc1 for me?
Data returned: -4.15

Data request: Can you look up the measured growth inhibition of O=C(O)c1ccc(OCCOc2ccccc2)c(Cl)c1 for me?
Data returned: 61

Data request: Can you look up the measured growth inhibition of NC(=S)NCc1ccccc1C(O)c1ccccc1 (configuration not stated) for me?
Data returned: 21.2

Data request: Can you look up the measured growth inhibition of N=C(N)SCCSC(=N)N for me?
Data returned: 12.9
